So I've got a bunch of molecules here, and I need their IC50 values.
target: human PI3Kα protein (Homo sapiens); construct: purchased Carna Biosciences, Inc; host or cells: baculovirus expression system; assay: PI3Kα enzyme assay (ADP-Glo); format: biochemical; conditions: 4.5 nmol/L PI3Kα, PIP2 50 μmol/L, ATP 100 μmol/L; read-out: PI3Kα enzyme inhibitory activity

Q: Please look at this molecule and report its IC50: `COCc1csc(Nc2ccc3ncc(-c4cnn(C)c4)cc3n2)n1`
Ans: 1 to 10 µM

Q: Please look at this molecule and report its IC50: `CC(C)c1cnc(Nc2ccc3ncc(-c4cnn(CCCN5CCCC5)c4)cc3n2)s1`
Ans: < 1 µM

Q: Please look at this molecule and report its IC50: `Cn1cc(-c2cnc3ccc(Nc4nnc(C5CCCC5)s4)nc3c2)cn1`
Ans: < 1 µM

Q: Please look at this molecule and report its IC50: `c1cc(Nc2cnc3ccc(Nc4nnc(C5CCCC5)s4)nc3c2)ccc1CCN1CCOCC1`
Ans: < 1 µM

Q: Please look at this molecule and report its IC50: `CC(C)OCc1nn(C)cc1-c1cnc2ccc(Nc3nnc(C(C)C)s3)nc2c1`
Ans: < 1 µM

* * *

biological target: GST fusion human ERK2 protein (Homo sapiens, UniProt P28482); construct: purchased Carna Biosciences, Inc; host or cells: E. coli expression system; assay: ERK2 enzyme assay (1); format: biochemical; details: 2.5 nmol/L ERK2, ATP 43.1 μmol/L; read-out: ERK2 enzyme inhibitory activity (1)
Sequence (P28482 whole entry, the tested form may be a part): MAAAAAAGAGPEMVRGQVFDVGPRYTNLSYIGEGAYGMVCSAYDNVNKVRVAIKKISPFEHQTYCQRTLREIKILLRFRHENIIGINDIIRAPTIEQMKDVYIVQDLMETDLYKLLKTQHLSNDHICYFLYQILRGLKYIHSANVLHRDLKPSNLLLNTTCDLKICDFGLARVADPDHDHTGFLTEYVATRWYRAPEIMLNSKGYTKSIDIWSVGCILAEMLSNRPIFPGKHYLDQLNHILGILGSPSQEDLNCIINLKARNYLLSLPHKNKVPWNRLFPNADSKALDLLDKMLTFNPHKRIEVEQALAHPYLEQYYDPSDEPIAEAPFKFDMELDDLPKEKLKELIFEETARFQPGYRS
pIC50: −log10 of the molar value.
PARAMETER MEASURED: pIC50

Q: Please look at this molecule and report its pIC50: `CC(C)c1nnc(Nc2ccc3nccc(Nc4cccnc4)c3n2)s1`
Ans: > 6.00

Q: Please look at this molecule and report its pIC50: `CC(C)Oc1cncc(Nc2cnc3ccc(Nc4nnc(C5CCCC5)s4)nc3c2)c1`
Ans: > 6.00

Q: Please look at this molecule and report its pIC50: `CC(C)c1nnc(Nc2ccc3ncc(-c4cn(C)nc4-c4ccccn4)cc3n2)s1`
Ans: > 6.00

* * *

So I've got a bunch of compounds here, and I need their IC50 values.
target: human PI3Kα protein (Homo sapiens, UniProt P42336); construct: purchased Carna Biosciences, Inc; host or cells: baculovirus expression system; experiment: PI3Kα enzyme assay (ADP-Glo); type: biochemical; settings: read-out: PI3Kα enzyme inhibitory activity
Sequence (P42336 whole entry): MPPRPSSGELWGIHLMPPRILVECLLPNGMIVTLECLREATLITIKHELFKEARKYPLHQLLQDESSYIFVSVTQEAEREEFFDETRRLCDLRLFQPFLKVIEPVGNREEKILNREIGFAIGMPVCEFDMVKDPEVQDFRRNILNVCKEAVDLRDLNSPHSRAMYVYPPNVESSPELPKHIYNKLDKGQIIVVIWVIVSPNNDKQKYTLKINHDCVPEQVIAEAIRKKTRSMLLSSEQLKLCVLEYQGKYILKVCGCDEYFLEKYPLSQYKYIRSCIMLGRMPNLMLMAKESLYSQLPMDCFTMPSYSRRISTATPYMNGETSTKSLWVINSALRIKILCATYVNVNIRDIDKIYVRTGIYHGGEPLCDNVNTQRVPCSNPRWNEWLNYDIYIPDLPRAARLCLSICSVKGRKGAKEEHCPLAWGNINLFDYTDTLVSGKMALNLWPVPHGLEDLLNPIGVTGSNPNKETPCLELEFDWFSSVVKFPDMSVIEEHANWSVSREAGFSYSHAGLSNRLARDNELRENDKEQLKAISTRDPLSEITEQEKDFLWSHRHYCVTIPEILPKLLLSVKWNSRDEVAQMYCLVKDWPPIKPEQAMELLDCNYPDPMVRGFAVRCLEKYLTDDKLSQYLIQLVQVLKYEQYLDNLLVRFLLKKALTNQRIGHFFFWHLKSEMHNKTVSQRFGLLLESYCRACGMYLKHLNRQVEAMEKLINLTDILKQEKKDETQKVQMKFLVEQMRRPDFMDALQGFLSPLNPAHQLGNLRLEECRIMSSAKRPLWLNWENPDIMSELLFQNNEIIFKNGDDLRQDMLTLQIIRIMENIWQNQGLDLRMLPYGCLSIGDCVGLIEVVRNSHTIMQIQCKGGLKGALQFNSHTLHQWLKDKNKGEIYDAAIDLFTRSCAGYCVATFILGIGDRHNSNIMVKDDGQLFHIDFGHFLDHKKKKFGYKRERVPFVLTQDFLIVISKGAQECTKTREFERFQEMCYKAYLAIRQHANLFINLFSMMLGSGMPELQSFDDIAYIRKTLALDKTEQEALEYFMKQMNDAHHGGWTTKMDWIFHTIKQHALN
Sequence (P27986 whole entry partner): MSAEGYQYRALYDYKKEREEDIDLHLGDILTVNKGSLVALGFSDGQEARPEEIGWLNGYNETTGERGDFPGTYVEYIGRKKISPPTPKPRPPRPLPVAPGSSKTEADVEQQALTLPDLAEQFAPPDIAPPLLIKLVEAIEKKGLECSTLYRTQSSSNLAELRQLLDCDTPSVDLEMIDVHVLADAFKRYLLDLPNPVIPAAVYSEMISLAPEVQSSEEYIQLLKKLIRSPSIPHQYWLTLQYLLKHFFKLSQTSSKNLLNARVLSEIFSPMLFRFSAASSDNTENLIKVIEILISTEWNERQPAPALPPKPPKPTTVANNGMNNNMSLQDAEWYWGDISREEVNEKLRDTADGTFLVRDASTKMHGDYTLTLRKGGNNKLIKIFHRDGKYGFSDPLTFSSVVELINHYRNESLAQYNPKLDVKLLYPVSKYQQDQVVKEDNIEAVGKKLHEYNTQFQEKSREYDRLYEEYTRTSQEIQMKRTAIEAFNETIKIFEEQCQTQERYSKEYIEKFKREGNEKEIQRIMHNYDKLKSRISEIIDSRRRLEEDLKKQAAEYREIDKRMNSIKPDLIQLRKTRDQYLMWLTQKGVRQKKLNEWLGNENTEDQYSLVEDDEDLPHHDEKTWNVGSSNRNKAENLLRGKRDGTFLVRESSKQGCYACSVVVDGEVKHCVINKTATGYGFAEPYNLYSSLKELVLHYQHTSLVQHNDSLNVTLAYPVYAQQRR

Q: Please look at this compound and report its IC50: `CC(C)c1cnnc(Nc2ccc3ncc(-c4cn(C)nc4Cc4cccnc4)cc3n2)c1`
Ans: < 1000 nM

Q: Please look at this compound and report its IC50: `Cn1cc(-c2cnc3ccc(Nc4nnc(C5CCCC5)s4)nc3c2Cl)cn1`
Ans: 1000 to 10000 nM

Q: Please look at this compound and report its IC50: `CC(C)c1cnnc(Nc2ccc3ncc(-c4cnn(CCC5CCN(C)CC5)c4)cc3n2)c1`
Ans: < 1000 nM

Q: Please look at this compound and report its IC50: `CCOc1c(-c2cnn(C)c2)cnc2ccc(Nc3nnc(C4CCCC4)s3)nc12`
Ans: < 1000 nM

Q: Please look at this compound and report its IC50: `CCN(CCO[Si](C)(C)C(C)(C)C)c1cnnc(Nc2ccc3ncc(-c4cnn(C)c4)cc3n2)c1`
Ans: 10000 to 50000 nM

Q: Please look at this compound and report its IC50: `CC(C)c1cnnc(Nc2ccc3ncc(-c4cnn(CCCN(C)CC(F)(F)F)c4)cc3n2)c1`
Ans: < 1000 nM

Q: Please look at this compound and report its IC50: `CCCc1nnc(Nc2ccc3ncc(-c4cnn(CCCN5CCCC5)c4)cc3n2)s1`
Ans: < 1000 nM

Q: Please look at this compound and report its IC50: COC(CN1CC(F)(F)C1)Cn1cc(-c2cnc3ccc(Nc4cc(C(C)C)cnn4)nc3c2)cn1 (stereo not drawn)
Ans: < 1000 nM

Q: Please look at this compound and report its IC50: `Cn1cc(-c2cnc3ccc(Nc4cc(CC5CCCCC5)cnn4)nc3c2)cn1`
Ans: < 1000 nM

Q: Please look at this compound and report its IC50: `CC(C)c1cnnc(Nc2ccc3ncc(-c4cnn(CCCN5CC(C(=O)N6CCOCC6)C5)c4)cc3n2)c1`
Ans: < 1000 nM

Q: Please look at this compound and report its IC50: `CC(C)c1cnnc(Nc2ccc3ncc(-c4cn(C)nc4COc4cccc(OCC(=O)N(C)C)c4)cc3n2)c1`
Ans: < 1000 nM

Q: Please look at this compound and report its IC50: `CC(C)c1cnnc(Nc2ccc3ncc(N4CCCC4)cc3n2)c1`
Ans: 1000 to 10000 nM

FYI, the data here is from patent US9783536B2.
